Tgt: EGFR Δ746-750 mutant (Homo sapiens (Human), UniProt P00533, DEL746-750)
Sequence (P00533 other isoform, or with tags, fused parts or gaps del 1-668/del 746-750 limits assumed): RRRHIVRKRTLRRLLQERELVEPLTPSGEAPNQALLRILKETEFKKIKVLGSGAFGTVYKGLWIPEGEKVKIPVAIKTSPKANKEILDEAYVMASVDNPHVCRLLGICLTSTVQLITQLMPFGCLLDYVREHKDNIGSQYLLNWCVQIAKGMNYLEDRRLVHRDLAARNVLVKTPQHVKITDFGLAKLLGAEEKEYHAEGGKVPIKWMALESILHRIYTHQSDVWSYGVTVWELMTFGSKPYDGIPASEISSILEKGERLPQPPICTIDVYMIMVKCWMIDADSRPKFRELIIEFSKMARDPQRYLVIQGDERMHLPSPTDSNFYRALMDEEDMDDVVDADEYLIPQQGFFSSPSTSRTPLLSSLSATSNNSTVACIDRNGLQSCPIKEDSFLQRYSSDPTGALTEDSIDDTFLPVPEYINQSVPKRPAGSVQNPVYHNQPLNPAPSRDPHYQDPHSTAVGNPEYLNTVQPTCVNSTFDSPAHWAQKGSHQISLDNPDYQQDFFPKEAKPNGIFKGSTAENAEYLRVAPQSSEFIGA
Procedure Text: HotSpot radiometric kinase assay, EGFR Δ746-750 mutant
Condition Notes: 10 μM ATP
Experimental: Biochemical Assays for Inhibition of Wild-Type and Mutant EGFRs Briefly, specific kinase/substrate pairs along with required cofactors were prepared in reaction buffer; 20 mM Hepes pH 7.5, 10 mM […], 1 mM EGTA, 0.02% Brij35, 0.02 mg/ml BSA, 0.1 mM Na3VO4, 2 mM DTT, 1% DMSO. Compounds were delivered into the reaction, followed […] later by addition of a mixture of ATP (Sigma, St. Louis MO) and ^33P ATP (Perkin Elmer, Waltham MA) to a final concentration of 10 μM. […]
Reported IC50 values are given for each entry in this list.
Observable: IC50

[
  {
    "Compound Structure String": "Cc1nn(CCN2CCCC2)c2c1/C=C/c1n[nH]c3ccc(cc13)-c1cnn(C)c1OCCCO2",
    "Tgt": "EGFR Δ746-750 mutant (Homo sapiens (Human), UniProt P00533, DEL746-750)",
    "Observable": "IC50",
    "Reported Value": "155 nM"
  },
  {
    "Compound Structure String": "CCOc1nn([C@H](C)CO)c2c1/C=C/c1n[nH]c3ccc(cc13)-c1cnn(C)c1O[C@@H](C)CN(C)C2",
    "Tgt": "EGFR Δ746-750 mutant (Homo sapiens (Human), UniProt P00533, DEL746-750)",
    "Observable": "IC50",
    "Reported Value": "38.3 nM"
  },
  {
    "Compound Structure String": "Cc1c2c(nn1C[C@H](C)O)CN(C)C[C@H](C)Oc1c(cnn1C)-c1ccc3[nH]nc(c3c1)/C=C/2",
    "Tgt": "EGFR Δ746-750 mutant (Homo sapiens (Human), UniProt P00533, DEL746-750)",
    "Observable": "IC50",
    "Reported Value": "18.3 nM"
  },
  {
    "Compound Structure String": "CCOc1nn(CCO)c2c1/C=C/c1n[nH]c3ccc(cc13)-c1cnn(C)c1O[C@@H](C)CN(C(C)C)C2",
    "Tgt": "EGFR Δ746-750 mutant (Homo sapiens (Human), UniProt P00533, DEL746-750)",
    "Observable": "IC50",
    "Reported Value": "0.3 nM"
  }
]

###

Tgt: EGFR L858R/T790M mutant (Homo sapiens (Human), UniProt P00533, L858R/T790M)
Sequence (P00533 25-1210 T790M/L858R): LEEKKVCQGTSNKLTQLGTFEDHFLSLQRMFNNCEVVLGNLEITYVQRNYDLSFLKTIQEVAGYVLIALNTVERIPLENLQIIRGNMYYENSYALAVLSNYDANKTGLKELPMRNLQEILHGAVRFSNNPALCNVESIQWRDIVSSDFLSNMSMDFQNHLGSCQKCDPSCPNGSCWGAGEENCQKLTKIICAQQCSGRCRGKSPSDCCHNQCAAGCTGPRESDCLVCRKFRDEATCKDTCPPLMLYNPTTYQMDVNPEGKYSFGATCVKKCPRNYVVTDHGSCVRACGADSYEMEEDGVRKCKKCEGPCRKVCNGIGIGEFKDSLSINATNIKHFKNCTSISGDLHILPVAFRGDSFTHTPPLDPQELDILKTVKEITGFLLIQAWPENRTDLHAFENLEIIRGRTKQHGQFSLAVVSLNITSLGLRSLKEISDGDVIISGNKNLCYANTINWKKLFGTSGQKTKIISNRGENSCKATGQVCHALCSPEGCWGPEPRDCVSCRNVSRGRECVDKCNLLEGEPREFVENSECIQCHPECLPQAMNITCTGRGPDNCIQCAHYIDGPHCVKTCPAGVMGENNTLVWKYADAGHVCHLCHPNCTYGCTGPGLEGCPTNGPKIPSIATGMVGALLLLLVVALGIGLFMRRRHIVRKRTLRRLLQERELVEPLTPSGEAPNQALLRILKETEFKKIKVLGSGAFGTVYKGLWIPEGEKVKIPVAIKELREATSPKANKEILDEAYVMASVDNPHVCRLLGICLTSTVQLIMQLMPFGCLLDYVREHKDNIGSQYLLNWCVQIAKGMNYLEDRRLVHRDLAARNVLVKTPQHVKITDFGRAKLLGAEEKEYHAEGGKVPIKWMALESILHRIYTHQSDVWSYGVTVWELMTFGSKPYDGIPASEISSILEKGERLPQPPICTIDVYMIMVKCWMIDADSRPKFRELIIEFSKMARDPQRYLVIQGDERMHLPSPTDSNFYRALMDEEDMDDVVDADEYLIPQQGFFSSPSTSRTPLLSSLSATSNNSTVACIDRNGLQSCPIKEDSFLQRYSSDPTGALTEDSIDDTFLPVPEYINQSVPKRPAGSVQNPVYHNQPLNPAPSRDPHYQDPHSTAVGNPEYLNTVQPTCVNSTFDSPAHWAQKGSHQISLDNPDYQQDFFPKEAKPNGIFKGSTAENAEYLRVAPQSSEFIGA
Procedure Text: HotSpot radiometric kinase assay, EGFR L858R/T790M mutant
Condition Notes: 10 μM ATP
# note: boundary value 0.9 nM maps to class 0; IC50 below it maps to class 1

[
  {
    "Molecule": "CCOc1nn(CCO)c2c1/C=C/c1n[nH]c3ccc(cc13)-c1cnn(C)c1O[C@H](C)CN(C(C)=O)C2",
    "Label Value": "class 1"
  },
  {
    "Molecule": "CCN1Cc2c(c(OC(C)C)nn2[C@@H](C)CO)/C=C/c2n[nH]c3cc(F)c(cc23)-c2cnn(C)c2O[C@@H](C)C1",
    "Label Value": "class 0"
  },
  {
    "Molecule": "CCOc1nn(CCO)c2c1/C=C/c1n[nH]c3ccc(cc13)-c1c(C)nn(C)c1OC[C@H](C)N(C1CC1)C2",
    "Label Value": "class 0"
  },
  {
    "Molecule": "CCN1Cc2c(c(OC(C)C)nn2CC(C)=O)/C=C/c2n[nH]c3ccc(cc23)-c2cnn(C)c2O[C@@H](C)C1",
    "Label Value": "class 1"
  },
  {
    "Molecule": "Cc1nn([C@@H]2COC[C@H]2O)c2c1/C=C/c1n[nH]c3ccc(cc13)-c1cnn(C)c1OCCCO2 (single isomer, unassigned)",
    "Label Value": "class 0"
  },
  {
    "Molecule": "CCOc1nn(CCO)c2c1/C=C/c1n[nH]c3ccc(cc13)-c1c(C)nn(C)c1O[C@@H](C)CN(C(C)C)C2",
    "Label Value": "class 0"
  },
  {
    "Molecule": "CC(C)c1noc2c1/C=C/c1n[nH]c3ccc(cc13)-c1cnn(C)c1O[C@@H](C)CN(C)C2",
    "Label Value": "class 0"
  },
  {
    "Molecule": "C[C@H]1CN(C)Cc2c(c(OCC(F)(F)F)nn2CCO)/C=C/c2n[nH]c3cc(F)c(cc23)-c2cnn(C)c2O1",
    "Label Value": "class 0"
  },
  {
    "Molecule": "CC(C)Oc1nn(CCO)c2c1/C=C/c1n[nH]c3cc(F)c(cc13)-c1cnn(C)c1O[C@H](C)[C@H]1CCCN1C2 (single isomer, unassigned)",
    "Label Value": "class 0"
  },
  {
    "Molecule": "Cc1nn(CCO)c2c1/C=C/c1n[nH]c3cc(F)c(cc13)-c1cnn(C)c1O[C@@H](C)CN(C)C2",
    "Label Value": "class 1"
  },
  {
    "Molecule": "Cc1nn([C@H]2CNC[C@@H]2O)c2c1/C=C/c1n[nH]c3ccc(cc13)-c1cnn(C)c1OCCCO2 (racemic)",
    "Label Value": "class 0"
  },
  {
    "Molecule": "CCOc1nn(CCO)c2c1/C=C/c1n[nH]c3ccc(cc13)-c1cnn(C)c1O[C@@H]1CN(C)C[C@H]1N(C)C2 (single isomer, unassigned)",
    "Label Value": "class 0"
  },
  {
    "Molecule": "C[C@H]1CN(C)Cc2c(c(OC3CCNCC3)nn2C)/C=C/c2n[nH]c3ccc(cc23)-c2cnn(C)c2O1",
    "Label Value": "class 1"
  },
  {
    "Molecule": "Cc1nn(C)c2c1/C=C/c1n[nH]c3ccc(cc13)-c1cnn(C)c1OCCN(C)C2",
    "Label Value": "class 0"
  },
  {
    "Molecule": "Cc1nn(CCO)c2c1/C=C/c1n[nH]c3ccc(cc13)-c1cnn(C)c1O[C@@H](C)CN(C)C2",
    "Label Value": "class 1"
  },
  {
    "Molecule": "Cc1nn(CCO)c2c1/C=C/c1n[nH]c3ccc(cc13)-c1c(C)nn(C)c1O[C@@H](C)CN(C)C2",
    "Label Value": "class 1"
  },
  {
    "Molecule": "CCN1CCOc2c(c(C)nn2C)/C=C/c2n[nH]c3ccc(cc23)-c2cnn(C)c2C1",
    "Label Value": "class 1"
  },
  {
    "Molecule": "C[C@H](C#N)Oc1nn(CCO)c2c1/C=C/c1n[nH]c3cc(F)c(cc13)-c1cnn(C)c1O[C@@H](C)CN(C)C2",
    "Label Value": "class 0"
  },
  {
    "Molecule": "CCc1nn(CCO)c2c1/C=C/c1n[nH]c3ccc(cc13)-c1cnn(C)c1O[C@@H](C)CN(C)C2",
    "Label Value": "class 1"
  },
  {
    "Molecule": "CCOc1nn(CCO)c2c1/C=C/c1n[nH]c3cc(F)c(cc13)-c1cnn(C)c1O[C@@H]1CCCN(C2)C1",
    "Label Value": "class 0"
  },
  {
    "Molecule": "C[C@H]1CN(C)Cc2cnn(C)c2/C=C/c2n[nH]c3ccc(cc23)-c2cnn(C)c2O1",
    "Label Value": "class 0"
  },
  {
    "Molecule": "CC(C)Oc1nn(CCO)c2c1/C=C/c1n[nH]c3cc(F)c(cc13)-c1cnn(C)c1O[C@@H](C)CN(C)C2",
    "Label Value": "class 0"
  },
  {
    "Molecule": "Cc1nn([C@H]2CCNC[C@@H]2O)c2c1/C=C/c1n[nH]c3ccc(cc13)-c1cnn(C)c1OCCCO2 (racemic)",
    "Label Value": "class 0"
  },
  {
    "Molecule": "CCc1nn(CCO)c2c1/C=C/c1n[nH]c3ccc(cc13)-c1cnn(C)c1OCCCO2",
    "Label Value": "class 0"
  },
  {
    "Molecule": "CCOc1nn(CCO)c2c1/C=C/c1n[nH]c3cc(F)c(cc13)-c1c(C)nn(C)c1O[C@@H](C)CN(C(C)C)C2",
    "Label Value": "class 0"
  }
]

###

Tgt: EGFR L858R/T790M mutant (Homo sapiens (Human), UniProt P00533, L858R/T790M)
Procedure Text: HotSpot radiometric kinase assay, EGFR L858R/T790M mutant
Condition Notes: 10 μM ATP
Observable: log10 IC50 (log10 of the value in nM)

[
  {
    "Compound": "C[C@H]1CN(C)Cc2c(c(OCC(F)(F)F)nn2C)/C=C/c2n[nH]c3ccc(cc23)-c2cnn(C)c2O1",
    "Reported Value": 0.15
  },
  {
    "Compound": "C[C@H]1CN(C)Cc2c(c(OCC#N)nn2CCO)/C=C/c2n[nH]c3ccc(cc23)-c2cnn(C)c2O1",
    "Reported Value": -0.77
  },
  {
    "Compound": "COC(C)(C)c1ccc2c(c1)O[C@@H]1CCN(CCOc3c(cnn3C)-c3ccc4[nH]nc(c4c3)/C=C/2)C1=O",
    "Reported Value": 0.20
  },
  {
    "Compound": "Cc1nn([C@H]2CCN(C)C[C@@H]2O)c2c1/C=C/c1n[nH]c3ccc(cc13)-c1cnn(C)c1OCCCO2 (racemic)",
    "Reported Value": 0.09
  },
  {
    "Compound": "Cc1nn(C[C@H](C)O)c2c1/C=C/c1n[nH]c3ccc(cc13)-c1cnn(C)c1O[C@@H](C)CN(C)C2",
    "Reported Value": -0.48
  },
  {
    "Compound": "C[C@@H](C#N)Oc1nn(CCO)c2c1/C=C/c1n[nH]c3cc(F)c(cc13)-c1cnn(C)c1O[C@@H](C)CN(C)C2",
    "Reported Value": 0.26
  },
  {
    "Compound": "CCc1nn(C)c2c1/C=C/c1n[nH]c3ccc(cc13)-c1cnn(C)c1O[C@@H](C)COC2",
    "Reported Value": 1.39
  }
]
